pEC50 for assorted binders
Molecular target: cynomolgus PD-1 (Sino Biological), coated on plates (cynomolgus, UniProt B0LAJ3 25-170)
Sequence (B0LAJ3 entry or part of it limits assumed): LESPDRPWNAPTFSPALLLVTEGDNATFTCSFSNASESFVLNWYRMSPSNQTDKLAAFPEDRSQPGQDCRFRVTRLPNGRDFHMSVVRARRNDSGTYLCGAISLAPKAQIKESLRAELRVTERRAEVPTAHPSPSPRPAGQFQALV
Assay: ELISA, plates coated with cynomolgus PD-1 at 1 µg/ml
pEC50: −log10 of the molar value.
ASSAY_ENDPOINT: pEC50

1) 1H6 (antibody, human IgG4, V domains shown) VH: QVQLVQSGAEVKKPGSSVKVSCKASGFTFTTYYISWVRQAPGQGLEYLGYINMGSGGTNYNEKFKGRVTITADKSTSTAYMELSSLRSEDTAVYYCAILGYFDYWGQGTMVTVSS VL: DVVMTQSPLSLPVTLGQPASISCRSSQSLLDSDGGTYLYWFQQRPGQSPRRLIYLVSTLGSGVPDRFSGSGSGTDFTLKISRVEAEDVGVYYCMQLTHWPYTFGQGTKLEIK ... 9.55
2) 2E5 (antibody, human IgG4, V domains shown) VH: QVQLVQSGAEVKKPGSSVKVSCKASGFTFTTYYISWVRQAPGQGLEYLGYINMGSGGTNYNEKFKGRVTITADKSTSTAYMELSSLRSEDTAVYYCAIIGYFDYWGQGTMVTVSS VL: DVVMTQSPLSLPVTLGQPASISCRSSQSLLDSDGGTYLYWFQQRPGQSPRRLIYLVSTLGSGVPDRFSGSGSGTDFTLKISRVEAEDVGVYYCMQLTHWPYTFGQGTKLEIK ... 9.60
3) 2C2 (antibody, human IgG4, V domains shown) VH: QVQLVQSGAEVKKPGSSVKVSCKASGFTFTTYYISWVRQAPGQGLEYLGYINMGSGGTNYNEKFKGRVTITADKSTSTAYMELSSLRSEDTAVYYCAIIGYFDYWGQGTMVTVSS VL: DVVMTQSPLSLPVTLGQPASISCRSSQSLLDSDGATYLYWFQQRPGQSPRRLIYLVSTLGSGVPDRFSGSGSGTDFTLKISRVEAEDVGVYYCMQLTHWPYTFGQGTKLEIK ... 9.92
4) 2G4 (antibody, human IgG4, V domains shown) VH: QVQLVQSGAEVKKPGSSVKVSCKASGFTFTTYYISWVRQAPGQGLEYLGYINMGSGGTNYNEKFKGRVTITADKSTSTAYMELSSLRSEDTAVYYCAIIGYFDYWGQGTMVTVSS VL: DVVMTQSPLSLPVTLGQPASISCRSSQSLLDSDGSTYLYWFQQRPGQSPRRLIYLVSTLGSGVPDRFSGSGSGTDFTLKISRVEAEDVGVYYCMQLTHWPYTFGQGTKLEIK ... 9.44

The measured values listed here are drawn from patent US20230014722A1.
